Assay: Mouse pharmacokinetics after oral gavage, plasma drug concentration by LC-MS/MS (C57BL/6)
Assay type: in vivo, C57bl/6 mice
Details: C57BL/6, 10 mg/kg, male mice
Mark label 1 for reported apparent oral clearance (CL/F) of 30 mL/min/kg or greater; mark label 0 for anything smaller.

1) NCC[C@H](NC(=O)[C@@H]1Cc2ccccc2CN1C(=O)CCC(=O)c1ccccc1)C(=O)Nc1ccc(Cl)c(Cl)c1F [Compound 2-24] : label 1
2) Cc1cc(NC(=O)C2(NC(=O)[C@@H]3Cc4ccccc4CN3C(=O)CCC(=O)c3ccccc3)CCNCC2)ccc1Cl [Compound 4-12] : label 1
3) Cc1cc(NC(=O)[C@@H](NC(=O)[C@@H]2Cc3ccccc3CN2C(=O)CCC(=O)c2ccccc2)C2CCN(C(C)C)CC2)ccc1Cl [Compound 8-2] : label 1
4) Cc1c(NC(=O)[C@H](CCN)NC(=O)[C@@H]2Cc3ccccc3CN2C(=O)CCC(=O)c2ccccc2)ccc(Cl)c1Cl [Compound 2-15] : label 1
5) Cc1cc(NC(=O)[C@H](CCN)NC(=O)[C@@H]2Cc3ccccc3CN2C(=O)CCC(=O)c2ccccc2)ccc1Cl [Compound 2-2] : label 1
6) Cc1cc(NC(=O)[C@H](CCN)NC(=O)[C@@H]2Cc3ccccc3CN2C(=O)CCC(=O)c2ccccc2)c(Cl)cc1Cl [Compound 2-22] : label 0

====

Molecular target: CXCR3 (Homo sapiens, UniProt P49682)
Construct: host or cells: CHO-K1 (cAMP Hunter CHOK1 CXCR3 Gi cell line)
Sequence (P49682 whole entry): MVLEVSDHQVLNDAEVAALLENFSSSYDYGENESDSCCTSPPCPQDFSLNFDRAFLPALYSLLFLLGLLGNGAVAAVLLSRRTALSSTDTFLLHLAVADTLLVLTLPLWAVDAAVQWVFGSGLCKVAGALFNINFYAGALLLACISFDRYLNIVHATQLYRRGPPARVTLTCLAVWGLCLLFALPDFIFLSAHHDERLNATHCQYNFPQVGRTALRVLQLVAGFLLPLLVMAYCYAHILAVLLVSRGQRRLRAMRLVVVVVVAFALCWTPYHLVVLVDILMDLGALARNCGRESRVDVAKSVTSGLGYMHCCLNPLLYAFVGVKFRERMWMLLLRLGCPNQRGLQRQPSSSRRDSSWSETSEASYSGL
Test: CXCR3 cAMP agonist assay (cAMP Hunter CHOK1 CXCR3 Gi cell line, forskolin-stimulated, HitHunter cAMP detection)
Format: cell-based
Conditions: cAMP Hunter CHOK1 CXCR3 Gi cells, 20 μM forskolin, 30 minutes; read-out: Activity (CXCR3 cAMP agonist assay compound EC50)
OBSERVATION TYPE: EC50

1. Cc1cc(NC(=O)[C@H](CCN)NC(=O)[C@@H]2Cc3ccccc3CN2C(=O)CCC(=O)N2CCCC(F)C2)ccc1Cl (stereo partly drawn) : < 50 nM
2. Cc1cc(NC(=O)[C@H](CCN)NC(=O)[C@@H]2Cc3ccccc3CN2C(=O)CCC(=O)N2CCC(c3ccccc3)C2)ccc1Cl (stereo partly drawn) : 50 to 250 nM
3. Cc1ccc(OC(F)(F)F)c(NC(=O)[C@H](CCN)NC(=O)[C@@H]2Cc3ccccc3CN2C(=O)CCC(=O)c2ccccc2)c1 : < 50 nM
4. Cc1c(Cl)ccc(NC(=O)C2(NC(=O)[C@@H]3Cc4ccccc4CN3C(=O)CCC(=O)c3ccccc3)CCNCC2)c1C : 50 to 250 nM
5. Cc1cc(NC(=O)[C@H](Cc2ccncc2)NC(=O)[C@@H]2Cc3ccccc3CN2C(=O)CCC(=O)c2ccccc2)ccc1Cl : 50 to 250 nM
6. Cc1cc(NC(=O)[C@H](CCCNC(C)C)NC(=O)[C@@H]2Cc3ccccc3CN2C(=O)CCC(=O)c2ccccc2)ccc1Cl : < 50 nM

====

Listed below: apparent oral clearance (CL/F) values for each entry.
Assay: Mouse pharmacokinetics after oral gavage, plasma drug concentration by LC-MS/MS (C57BL/6)
Assay type: in vivo, C57bl/6 mice
Conditions: C57BL/6, 60 mg/kg, female mice
OBSERVATION TYPE: apparent oral clearance (CL/F) (mL/min/kg)

1. CN1CCN(C(=O)CCC(=O)N2Cc3ccccc3C[C@H]2C(=O)NC2(C(=O)Nc3ccc(Cl)c(Cl)c3F)CCNCC2)CC1 : 851
2. Cc1cc(NC(=O)[C@H](CCN)NC(=O)[C@@H]2Cc3ccccc3CN2C(=O)CCC(=O)N2CCCCC2(C)C)c(C#N)cc1Cl : 565
3. Cc1cc(NC(=O)[C@H](CCN)NC(=O)[C@@H]2Cc3ccccc3CN2C(=O)CCC(=O)N2CCCC(C)(C)C2)ccc1Cl : 280
4. CC1(C)CCCCN1C(=O)CCC(=O)N1Cc2ccccc2C[C@H]1C(=O)N[C@@H](CCN)C(=O)Nc1ccc(Cl)c(Cl)c1F : 666

====

Assay: Mouse pharmacokinetics after oral gavage, plasma drug concentration by LC-MS/MS (BALB/c)
Assay type: in vivo
Conditions: mouse, plasma, 10 mg/kg, male mice
OBSERVATION TYPE: log10(Cmax) (log10 of the value in nM)

1. Cc1cc(NC(=O)[C@H](CCCCNC(C)C)NC(=O)[C@@H]2Cc3ccccc3CN2C(=O)CCC(=O)c2ccccc2)ccc1Cl : 3.08
2. Cc1cccc(NC(=O)[C@H](CCN)NC(=O)[C@@H]2Cc3ccccc3CN2C(=O)CCC(=O)c2ccccc2)c1 : 2.70
3. Cc1cc(Cl)c(Cl)cc1NC(=O)[C@H](CCN)NC(=O)[C@@H]1Cc2ccccc2CN1C(=O)CCC(=O)c1ccccc1 : 2.95
4. Cc1cc(NC(=O)[C@H](CCN)NC(=O)[C@@H]2Cc3ccccc3CN2C(=O)CCC(=O)c2ccccc2)ccc1Cl : 3.54
5. NCC[C@H](NC(=O)[C@@H]1Cc2ccccc2CN1C(=O)CCC(=O)c1ccccc1)C(=O)Nc1ccc(Cl)c(Cl)c1 : 3.26
6. Cc1cc(NC(=O)[C@H](CCCN)NC(=O)[C@@H]2Cc3ccccc3CN2C(=O)CCC(=O)c2ccccc2)ccc1Cl : 1.48
7. Cc1c(NC(=O)[C@H](CCCCN)NC(=O)[C@@H]2Cc3ccccc3CN2C(=O)CCC(=O)c2ccccc2)ccc(Cl)c1Cl : 1.85

====

Listed below: log10(Cmax) values for each entry.
Assay: Mouse pharmacokinetics after oral gavage, plasma drug concentration by LC-MS/MS (C57BL/6)
Type: in vivo, C57bl/6 mice
Settings: mouse, plasma, C57BL/6, 10 mg/kg, male mice
OBSERVATION TYPE: log10(Cmax) (log10 of the value in nM)

1) Cc1cc(NC(=O)[C@H](CCN)NC(=O)[C@@H]2Cc3ccccc3CN2C(=O)CCC(=O)c2ccccc2)c(Cl)cc1Cl : 3.46
2) Cc1cc(NC(=O)[C@H](CCN)NC(=O)[C@@H]2Cc3ccccc3CN2C(=O)CCC(=O)c2ccccc2)ccc1Cl : 2.95
3) N=C(N)NCCC[C@H](NC(=O)[C@@H]1Cc2ccccc2CN1C(=O)CCC(=O)c1ccccc1)C(=O)NCC1CCCCC1 : 0.30
4) Cc1cc(NC(=O)[C@H](CCCCN)NC(=O)[C@@H]2Cc3ccccc3CN2C(=O)CCC(=O)c2ccccc2)ccc1Cl : 0.78
5) Cc1cc(NC(=O)[C@H](CCNC(C)C)NC(=O)[C@@H]2Cc3ccccc3CN2C(=O)CCC(=O)c2ccccc2)ccc1Cl : 2.52
6) Cc1cc(NC(=O)C2(NC(=O)[C@@H]3Cc4ccccc4CN3C(=O)CCC(=O)c3ccccc3)CCNCC2)ccc1Cl : 3.52

====

Listed below: Cmax values for each entry.
Experiment: Mouse pharmacokinetics after oral gavage, plasma drug concentration by LC-MS/MS (BALB/c)
Format: in vivo
Details: mouse, plasma, 10 mg/kg, male mice
Protocol: Compounds were formulated in 5% DMSO/5% Tween20 in H2O, sonicated, vortexed, and put on stir plate overnight at a dose volume of 10 mL/kg. […] Plasma was collected via centrifugation and analyzed for drug concentrations. […] Prepared samples were usually analyzed in reverse chronological order with bracketing standard curves. Typically at least 6 standards were used for quantification with a percent accuracy of +/−15% for all standards except at the LLOQ where a percent accuracy of +/−20% was allowed. […]
OBSERVATION TYPE: Cmax

1. Cc1cc(NC(=O)[C@H](CCN)NC(=O)[C@@H]2Cc3ccccc3CN2C(=O)CCC(=O)c2ccccc2)c(C)cc1Cl [Compound 2-19] : 1300 nM
2. NCCCC[C@H](NC(=O)[C@@H]1Cc2ccccc2CN1C(=O)CCC(=O)c1ccccc1)C(=O)Nc1ccc(Cl)c(F)c1 [Compound 1-20] : 230 nM
3. NCCCC[C@H](NC(=O)[C@@H]1Cc2ccccc2CN1C(=O)CCC(=O)c1ccccc1)C(=O)Nc1ccc(F)c(C(F)(F)F)c1 [Compound 1-26] : 3 nM
4. Cc1cc(NC(=O)[C@H](CCN)NC(=O)[C@@H]2Cc3ccccc3CN2C(=O)CCC(=O)c2ccccc2)c(Cl)cc1Cl [Compound 2-22] : 4200 nM
5. NCCCC[C@H](NC(=O)[C@@H]1Cc2ccccc2CN1C(=O)CCC(=O)c1ccccc1)C(=O)NCC(c1ccccc1)c1ccccc1 [B] : 7 nM
6. Cc1cc(NC(=O)[C@H](CCNC(C)C)NC(=O)[C@@H]2Cc3ccccc3CN2C(=O)CCC(=O)c2ccccc2)ccc1Cl [Compound 8-3] : 800 nM
7. Cc1ccc(NC(=O)[C@H](CCN)NC(=O)[C@@H]2Cc3ccccc3CN2C(=O)CCC(=O)c2ccccc2)cc1C [Compound 2-3] : 400 nM
8. CNCCCC[C@H](NC(=O)[C@@H]1Cc2ccccc2CN1C(=O)CCC(=O)c1ccccc1)C(=O)Nc1ccc(Cl)c(C)c1 [Compound 4-4] : 20 nM
9. Cc1ccc(NC(=O)[C@H](CCN)NC(=O)[C@@H]2Cc3ccccc3CN2C(=O)CCC(=O)c2ccccc2)cc1C(F)(F)F [Compound 2-7] : 1900 nM
10. Cc1cc(NC(=O)[C@H](CCN)NC(=O)[C@@H]2Cc3ccccc3CN2C(=O)CCC(=O)c2ccccc2)c(F)cc1Cl [Compound 2-18] : 2900 nM
11. N=C(N)NCCC[C@H](NC(=O)[C@@H]1Cc2ccccc2CN1C(=O)CCC(=O)c1ccccc1)C(=O)NCC1CCCCC1 [A] : 4 nM
12. NCC[C@H](NC(=O)[C@@H]1Cc2ccccc2CN1C(=O)CCC(=O)c1ccccc1)C(=O)Nc1ccc(Cl)c(Cl)c1F [Compound 2-24] : 3300 nM
13. Cc1c(Cl)ccc(NC(=O)[C@H](CCN)NC(=O)[C@@H]2Cc3ccccc3CN2C(=O)CCC(=O)c2ccccc2)c1C [Compound 2-26] : 900 nM
